biological target: Signal transducer and activator of transcription 3 (Homo sapiens, UniProt P40763); assay: Inhibition of IL-6 induced STAT3 phosphorylation at Tyr705 residue in human MCF7 cells preincubated for 1 hr followed by IL-6 stimulation and measured after 1 hr by Western blot analysis
Sequence (P40763 whole entry): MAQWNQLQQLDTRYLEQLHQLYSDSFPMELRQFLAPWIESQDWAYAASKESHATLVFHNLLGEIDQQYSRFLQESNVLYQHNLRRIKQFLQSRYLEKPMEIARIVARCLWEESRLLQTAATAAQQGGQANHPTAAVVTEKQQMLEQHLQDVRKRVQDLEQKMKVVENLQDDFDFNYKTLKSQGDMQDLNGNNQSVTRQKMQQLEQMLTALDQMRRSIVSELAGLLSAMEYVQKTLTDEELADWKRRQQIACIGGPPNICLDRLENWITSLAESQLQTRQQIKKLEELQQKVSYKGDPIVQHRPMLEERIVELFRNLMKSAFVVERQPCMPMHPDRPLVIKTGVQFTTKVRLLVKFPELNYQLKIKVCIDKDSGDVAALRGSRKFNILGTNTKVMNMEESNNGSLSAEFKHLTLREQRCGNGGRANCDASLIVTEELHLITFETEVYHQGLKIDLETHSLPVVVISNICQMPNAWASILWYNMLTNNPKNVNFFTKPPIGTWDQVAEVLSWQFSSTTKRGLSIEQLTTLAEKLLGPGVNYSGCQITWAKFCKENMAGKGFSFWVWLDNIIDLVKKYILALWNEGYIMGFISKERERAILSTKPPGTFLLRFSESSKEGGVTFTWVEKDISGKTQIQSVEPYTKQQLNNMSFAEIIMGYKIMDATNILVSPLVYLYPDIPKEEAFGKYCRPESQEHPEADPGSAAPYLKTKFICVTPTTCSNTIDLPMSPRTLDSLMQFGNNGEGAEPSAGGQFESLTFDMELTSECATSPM
pIC50: −log10 of the molar value.
Result Type: pIC50

CC(=O)c1cc2c(o1)C(=O)c1cccc(O)c1C2=O
5.70
C[C@H](O)c1cc2c(o1)C(=O)c1cccc(O)c1C2=O
5.70

---

target: Signal transducer and activator of transcription 3 (Homo sapiens, UniProt P40763); test: Inhibition of IL-6 induced STAT3 phosphorylation at Tyr705 residue in human MCF7 cells at 1 uM preincubated for 1 hr followed by IL-6 stimulation and measured after 1 hr by Western blot analysis relative to control; assay type: cell-based
Active and inactive are the calls of the source. The calls are words filed in the database; no cut-off is given here.
Hi there, use one of these labels in your reply, thanks! active, inactive

Examples with answers:
C[C@H](O)c1cc2c(o1)C(=O)c1cccc(O)c1C2=O
active
CC(C)=CCC1=C(O)C(=O)c2ccccc2C1=O [LAPACHOL]
inactive
C[C@H](O)c1cc2c(o1)C(=O)c1c(O)cccc1C2=O
active
CC1(C)CCC2=C(O1)c1ccccc1C(=O)C2=O [LAPACHONE]
inactive

query: Answer briefly: the call reported for CC1(C)CCC2=C(O1)C(=O)c1ccccc1C2=O [ALPHA-LAPACHONE] in this assay.
result: inactive
